- Test system: ICR mice
- PROCEDURE_DETAILS: Righting reflex experiment on mice
- MEASUREMENT_CONTEXT: mice; maximum dose causing 100% loss of righting reflex without death
ATTRIBUTE_MEASURED: MTD (mg/kg)
# number only, unit mg/kg dropped from output

CC(c1cccc(C(C)C2CC2)c1O)C1CC1 (centres unmarked) [Compound 13, 2,6-bis(1-cyclopropylethyl)phenol]	10.0
CC(C)c1cccc([C@H](C)C2CCC2)c1O [Compound 14]	35.0
CC(C)c1cccc([C@@H](C)C2CCC2)c1O [Compound 15]	70.0

Please indicate recorded MTD of C[C@H](c1cccc([C@@H](C)C2CC2)c1O)C1CC1 [Compound 20, 2,6-bis[(1S)-1-cyclopropylethyl]phenol] measured with ICR mice.
90.0

Please indicate recorded MTD of CC(C)c1cccc(C(C)C2CCC2)c1O (centres unmarked) [Compound 7, 2-(1-cyclobutylethyl)-6-isopropylphenol] measured with ICR mice.
30.0

----------
# maps each entry to its ED50
- Test system: ICR mice
- PROCEDURE_DETAILS: Righting reflex experiment on mice
- MEASUREMENT_CONTEXT: Mus musculus, iv
# number only, unit mg/kg dropped from output

CC(c1cccc(C(C)C2CC2)c1O)C1CC1 (stereo not shown) [Compound 13, 2,6-bis(1-cyclopropylethyl)phenol]	3.6

Could you please provide reported ED50 for CC(C)c1cccc([C@@H](C)C2CCC2)c1O [Compound 15] ? Thanks!
46.1

Could you please provide reported ED50 for COc1cccc(C(C)C2CC2)c1O (stereo not shown) [Compound 8, 2-(1-cyclopropylethyl)-6-methoxy-phenol] ? Thanks!
7.3

Could you please provide reported ED50 for CC(c1cccc(C2(C)CC2)c1O)C1CC1 (stereo not shown) [Compound 6] ? Thanks!
10.5

Could you please provide reported ED50 for C[C@H](c1cccc([C@H](C)C2CC2)c1O)C1CC1 [Compound 19] ? Thanks!
1.5

Could you please provide reported ED50 for C[C@H](c1cccc([C@@H](C)C2CC2)c1O)C1CC1 [Compound 20, 2,6-bis[(1S)-1-cyclopropylethyl]phenol] ? Thanks!
15.7

Could you please provide reported ED50 for CC(C)c1cccc(C(C2CC2)C2CC2)c1O [Compound 11] ? Thanks!
30.1

Could you please provide reported ED50 for C[C@@H](c1cccc([C@H](C)C2CC2)c1O)C1CC1 [Compound 18, 2,6-bis[(1R)-1-cyclopropylethyl]phenol] ? Thanks!
5.8

Could you please provide reported ED50 for CC(C)c1cccc(C(C)C2CCC2)c1O (stereo not shown) [Compound 7, 2-(1-cyclobutylethyl)-6-isopropylphenol] ? Thanks!
7.1

Could you please provide reported ED50 for CC(C)c1cccc([C@H](C)C2CC2)c1O [Compound 16] ? Thanks!
1.5

----------
- PROCEDURE_DETAILS: Righting reflex experiment on mice
- MEASUREMENT_CONTEXT: both, ICR, mouse, in vivo, intravenous
I would appreciate it if you labelled entries Fulfilled when MTD is 30 mg/kg or higher, otherwise Not fulfilled.

Solved cases below.
COc1cccc(C(C)C2CC2)c1O (centres unmarked)	Fulfilled
CC[C@H](C)c1cccc([C@@H](C)C2CC2)c1O	Not fulfilled
CC[C@@H](C)c1cccc([C@H](C)C2CC2)c1O	Not fulfilled

Attention now shifts to the item below.
Given "CC(C)c1cccc(C(C2CC2)C2CC2)c1O" , state whether its MTD is at least 30 mg/kg.
Fulfilled

----------
- Test system: ICR mice
- PROCEDURE_DETAILS: Righting reflex experiment on mice
- MEASUREMENT_CONTEXT: safety index, LD5/ED95, mice
# maps each entry to its SI
Please respond with just the number, no unit label.

Reference set (9 entries):
CC(c1cccc(C2(C)CC2)c1O)C1CC1 (stereo not shown) [Compound 6]	2.7
CC[C@H](C)c1cccc([C@@H](C)C2CC2)c1O [Compound 28]	3.0
CC(C)c1cccc(C(C)C2CC2)c1O (stereo not shown) [Compound 3, 2-(1-cyclopropylethyl)-6-isopropylphenol]	1.7
CC(C)c1cccc([C@@H](C)C2CCC2)c1O [Compound 15]	1.1
CC(C)c1cccc(C(C2CC2)C2CC2)c1O [Compound 11]	2.5
CC(c1cccc(C2CC2)c1O)C1CC1 (stereo not shown) [Compound 5]	4.0
CC(C)c1cccc(C(C)C2CCC2)c1O (stereo not shown) [Compound 7, 2-(1-cyclobutylethyl)-6-isopropylphenol]	2.7
CC(C)c1cccc([C@H](C)C2CCC2)c1O [Compound 14]	3.7
COc1cccc(C(C)C2CC2)c1O (stereo not shown) [Compound 8, 2-(1-cyclopropylethyl)-6-methoxy-phenol]	7.0

Continue with the compound presented below.
Could you please provide reported SI for CC[C@H](C)c1cccc([C@H](C)C2CC2)c1O [Compound 25] ? Thanks!
4.6

----------
- System: ICR mice
- PROCEDURE_DETAILS: Righting reflex experiment on mice with prodrugs
- Assay type: in vivo
- MEASUREMENT_CONTEXT: mice, intravenous injection, prodrugs
Structures can show the parent of a compound that is named as a salt.
# maps each entry to its Anesthesia maintenance time
# number only, unit s dropped from output

Please indicate recorded Anesthesia maintenance time of "CC(C)c1cccc([C@H](C)C2CC2)c1OCOP(=O)([O-])[O-].[Na+].[Na+]" measured with ICR mice.
1830.2

Please indicate recorded Anesthesia maintenance time of CC(C)c1cccc([C@H](C)C2CC2)c1OCOC(=O)C(NC(=O)OC(C)(C)C)C(C)C (stereo in doubt) measured with ICR mice.
1931.2

Please indicate recorded Anesthesia maintenance time of "CC(C)c1cccc([C@H](C)C2CCC2)c1OCOP(=O)([O-])[O-].[Na+].[Na+]" measured with ICR mice.
2378.3

Please indicate recorded Anesthesia maintenance time of "CC(=O)Oc1ccccc1C(=O)OCOc1c(C(C)C)cccc1[C@H](C)C1CC1" measured with ICR mice.
478.9

Please indicate recorded Anesthesia maintenance time of "CC(C)c1cccc([C@@H](C)C2CC2)c1OCOP(=O)([O-])[O-].[Na+].[Na+]" measured with ICR mice.
3278.0

Please indicate recorded Anesthesia maintenance time of "CC(C)c1cccc([C@H](C)C2CC2)c1OCOC(=O)c1cccnc1" measured with ICR mice.
1159.9

Please indicate recorded Anesthesia maintenance time of "CC[C@H](C)c1cccc([C@H](C)C2CC2)c1OCOP(=O)([O-])[O-].[Na+].[Na+]" measured with ICR mice.
2252.1

Please indicate recorded Anesthesia maintenance time of C[C@H](c1cccc([C@H](C)C2CC2)c1OCOP(=O)(O)O)C1CC1 [Compound 76, phosphate] measured with ICR mice.
1992.8

Please indicate recorded Anesthesia maintenance time of CC(C)C[C@H](N)C(=O)OCOc1c(C(C)C)cccc1[C@H](C)C1CC1 [Compound 60, trifluoroacetate] measured with ICR mice.
1473.0

----------
- PROCEDURE_DETAILS: Pharmacokinetic experiment on rats
- Format: in vivo, SD rats
- MEASUREMENT_CONTEXT: male, Sprague-Dawley, rat, plasma; Intravenous Injection into Rats (1 mg/kg)
# maps each entry to its clearance
# number only, unit mL/min/kg dropped from output

Reference set (2 entries):
CC[C@@H](C)c1cccc([C@H](C)C2CC2)c1O [Compound 26]	134
COc1cccc(C(C)C2CC2)c1O (stereo not drawn) [Compound 8, 2-(1-cyclopropylethyl)-6-methoxy-phenol]	119

Could you please provide reported clearance for CC[C@H](C)c1cccc([C@H](C)C2CC2)c1O [Compound 25] ? Thanks!
208

----------
# maps each entry to its half-life
- PROCEDURE_DETAILS: Pharmacokinetic experiment on rats
- Type: in vivo, SD rats
- MEASUREMENT_CONTEXT: male, Sprague-Dawley, rat, plasma; Intravenous Injection into Rats (1 mg/kg)
# number only, unit min dropped from output

CC[C@H](C)c1cccc([C@H](C)C2CC2)c1O	24
CC[C@@H](C)c1cccc([C@H](C)C2CC2)c1O	30
CC(C)c1cccc([C@H](C)C2CC2)c1O	30

Could you please provide reported half-life for "CC[C@@H](C)c1cccc([C@@H](C)C2CC2)c1O" ? Thanks!
24

----------
- Test system: ICR mice
- PROCEDURE_DETAILS: Righting reflex experiment on mice
- MEASUREMENT_CONTEXT: Mus musculus, iv
ATTRIBUTE_MEASURED: ED50 (mg/kg)
# number only, unit mg/kg dropped from output

Please indicate recorded ED50 of "CC[C@H](C)c1cccc([C@H](C)C2CC2)c1O" measured with ICR mice.
2

----------
- PROCEDURE_DETAILS: Righting reflex experiment on mice with prodrugs
- Type: in vivo
- MEASUREMENT_CONTEXT: both sexes, ICR, mouse, in vivo; mice, prodrugs
ATTRIBUTE_MEASURED: MTD
Please format your answer as a value with the unit trailing.

Could you please provide reported MTD for "CC(C)c1cccc([C@H](C)C2CC2)c1OCOP(=O)(OCOC(=O)C(C)(C)C)OCOC(=O)C(C)(C)C" ? Thanks!
200 mg/kg
